# Target: human recombinant 5-HT2C receptor (Homo sapiens)
# Sequence (P28335 33-458): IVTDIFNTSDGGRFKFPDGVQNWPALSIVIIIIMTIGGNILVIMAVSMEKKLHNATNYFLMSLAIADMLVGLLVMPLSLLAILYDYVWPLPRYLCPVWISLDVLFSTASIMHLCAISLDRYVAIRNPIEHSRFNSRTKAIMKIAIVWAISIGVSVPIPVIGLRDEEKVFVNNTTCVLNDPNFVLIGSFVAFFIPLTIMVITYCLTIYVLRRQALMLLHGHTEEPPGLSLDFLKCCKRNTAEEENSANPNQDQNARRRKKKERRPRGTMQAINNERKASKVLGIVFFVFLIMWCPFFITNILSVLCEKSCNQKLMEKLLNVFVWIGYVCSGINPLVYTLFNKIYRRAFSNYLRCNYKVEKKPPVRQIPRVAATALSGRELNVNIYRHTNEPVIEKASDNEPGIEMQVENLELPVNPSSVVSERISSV
# Measurement notes: Binding affinity for serotonin 5-HT2C receptor ([3H]Mesulergine)
# Protocol conditions: CHO-K1 membranes, 1.3 nM [3H]Mesulergine
pIC50: −log10 of the molar value. Where a name gives a salt, the structure may show the parent alone.
# key: entry, value: pIC50
Reported endpoint: pIC50

[[record]]
compound = "Cc1c(C(=O)NCCCN2CCN(c3cccc(Cl)c3Cl)CC2)cc(-c2ccccc2)n1Cc1ccccc1"
observed_value = 6.66

[[record]]
compound = "Cc1c(C(=O)NCCN2CCN(c3cccc(Cl)c3F)CC2)cc(C(C)(C)C)n1C"
observed_value = 6.53

[[record]]
compound = "Cc1c(C(=O)NCCCCN2CCN(c3cccc(Cl)c3Cl)CC2)cc(-c2ccccc2)n1C [Example 36, hydrochloride]"
observed_value = 7.49

[[record]]
compound = "Cc1cccc(N2CCN(CCCNC(=O)c3cc(-c4ccccc4)n(Cc4ccccc4)c3C)CC2)c1C"
observed_value = 6.53

[[record]]
compound = "C=CCCc1cc(C(=O)NCCCN2CCN(c3cccc(Cl)c3Cl)CC2)c(C)n1C"
observed_value = 6.76

